- System: UO-31 renal
- Protocol: NCI-60 one-dose screen, 48 h
- Assay setup: 10 µM unless noted
Compounds without any hit were thinned out: in the full panel of roughly 83,000, 20% have a hit. Calls of active or inactive are those of the source. How the source made its calls: active means growth percent below 10; inactive means the rest.
Labels: true (1) (active), false (0) (inactive)

[
  {
    "Compound": "COc1ccccc1S(=O)Nc1ccccc1 (stereo not given)",
    "Label value": "false (0)"
  },
  {
    "Compound": "Clc1ccc2nc(-c3ccc(-c4ccc(/C=N/NC5=NCCN5)cc4)s3)cn2c1",
    "Label value": "false (0)"
  },
  {
    "Compound": "CCCCN(CCCC)CC(O)c1ccc(OCc2ccccc2)c2ccccc12 (stereo not given)",
    "Label value": "false (0)"
  },
  {
    "Compound": "CC(=O)CC(=O)SC1=NCCS1",
    "Label value": "false (0)"
  },
  {
    "Compound": "CC(=O)O.CC(=O)O.O.[Fe]",
    "Label value": "false (0)"
  },
  {
    "Compound": "Cc1cc2c(C(C)C)c(O)c(O)c(C=NCc3ccoc3)c2c(O)c1-c1c(C)cc2c(C(C)C)c(O)c(O)c(C=NCc3ccco3)c2c1O",
    "Label value": "false (0)"
  },
  {
    "Compound": "CCCCCCSc1ncnc2nc[nH]c12",
    "Label value": "false (0)"
  },
  {
    "Compound": "C=C(C)[C@@H]1CC[C@]2(C(=O)NCCNCCNCCN)CC[C@]3(C)[C@H](CC[C@@H]4[C@@]5(C)CC[C@H](O)C(C)(C)[C@@H]5CC[C@]43C)[C@@H]12",
    "Label value": "true (1)"
  },
  {
    "Compound": "Cc1ccc(Oc2c(/C=N/NC(=O)Cn3c(=O)sc4ccccc43)c(C)nn2-c2ccccc2)cc1",
    "Label value": "false (0)"
  },
  {
    "Compound": "O=C1C(Cl)=C(Nc2ccc3cn[nH]c3c2)C(=O)c2ccccc21",
    "Label value": "true (1)"
  }
]

----------
- System: SK-MEL-5 melanoma
- Protocol: NCI-60 one-dose screen, 48 h
- Assay setup: 10 µM unless noted
About 83,000 compounds went through this panel and 20% of them were active in at least one assay; those are over-represented in the sample as a whole. Activity calls are given as the source filed them. The calls were made as follows: active = growth percent below 10; inactive = the rest.
Classes used: T = active, F = inactive

[
  {
    "Compound": "C=CC1=C(C)C2=NC1=CC1=NC(=CC3=C(C)C4=C(O)C(C(=O)O)C(=C5NC(=C2)C(C)C5CCC(=O)O)C4=N3)C(CC)=C1C (centres undefined)",
    "Tgt": "SK-MEL-5 melanoma",
    "Label value": "F"
  },
  {
    "Compound": "COc1ncc(-c2ccc3nccc(C#CCCCCC(=O)O)c3c2)cc1NS(=O)(=O)c1ccc(F)cc1F",
    "Tgt": "SK-MEL-5 melanoma",
    "Label value": "F"
  },
  {
    "Compound": "CCCCCCCCCCCCCC[n+]1cccc(C(N)=O)c1",
    "Tgt": "SK-MEL-5 melanoma",
    "Label value": "T"
  },
  {
    "Compound": "O=C1Nc2ccccc2/C1=C/C(=O)c1ccc(N2CCOCC2)cc1",
    "Tgt": "SK-MEL-5 melanoma",
    "Label value": "F"
  }
]
